# Assay procedure: Human HepG2 cell viability assay in 384 well format
# Type: toxicity, cell-based
# Design: dose 125 nL, time 70.5 hour; concentration not given beside the values
# Condition description: HepG2 cells, read-out: Inhibition
Quantity: cytotoxicity at 70.5 h (%)
Give the value in % but do not write % after it.

Return the recorded cytotoxicity at 70.5 h value; entry: Cc1cc(C)cc(NC(=O)CN2CCCC(n3cncn3)C2)c1 (stereo unspecified)
-3.52

Return the recorded cytotoxicity at 70.5 h value; entry: `O=C(c1ccno1)N1CC[C@@H]2O[C@H](COCCN3CCCC3)CC[C@@H]21`
9.33

Return the recorded cytotoxicity at 70.5 h value; entry: `CS(=O)(=O)c1nccn1Cc1ccc(OC(F)F)cc1`
-4.68

Return the recorded cytotoxicity at 70.5 h value; entry: `Cc1ccc(S(N)(=O)=O)cc1C(=O)N1C[C@@H](CN(C)C)[C@@H](CO)C1`
-5.13

Return the recorded cytotoxicity at 70.5 h value; entry: O=C(Nc1cccc(N2CCN(CC3CC3)CC2)c1)C1CCOC1 (stereo unspecified)
-4.69

Return the recorded cytotoxicity at 70.5 h value; entry: CCN1CC(C(=O)N2CCN(c3cnn(C)c(=O)c3)CC2)CCC1=O (stereo unspecified)
-9.64

Return the recorded cytotoxicity at 70.5 h value; entry: O=C(CCCOCc1ccccc1)N1CCCC(n2cncn2)C1 (stereo unspecified)
-1.64

Return the recorded cytotoxicity at 70.5 h value; entry: CC(C)C(=O)N1CCN(S(C)(=O)=O)CC2(CC(=O)N(C)C2)C1 (stereo unspecified)
-7.11

Return the recorded cytotoxicity at 70.5 h value; entry: CS(=O)(=O)NCC1CCCCN1C(=O)c1cccc(C(F)(F)F)c1 (stereo unspecified)
-0.142

Return the recorded cytotoxicity at 70.5 h value; entry: CC(=O)N1CCCN(c2cc(C3CN(C)CCO3)nc(C)n2)CC1 (stereo unspecified)
12

Return the recorded cytotoxicity at 70.5 h value; entry: COC(=O)C(c1cc(F)ccc1F)N(C)C(=O)c1ccnc(C)n1 (stereo unspecified)
1.49

---

# Assay procedure: Human HepG2 cell viability assay in 384 well format
# Type: toxicity, cell-based
# Set-up: dose 125 nL, time 70.5 hour; concentration not given beside the values
# Condition description: HepG2 cells, read-out: Inhibition
Quantity: cytotoxicity at 70.5 h (%)
Give the value in % but do not write % after it.

Return the recorded cytotoxicity at 70.5 h value; entry: `CN(C)CC(=O)N1CCC2(CC1)COCCN(c1ncccn1)C2`
22.5

Return the recorded cytotoxicity at 70.5 h value; entry: CCC(=O)Nc1ccc(C(C)NC(=O)COCCOC)cc1 (stereo not drawn)
3.18

Return the recorded cytotoxicity at 70.5 h value; entry: `Cc1cccc(CNCc2c(C(C)C)nn(C)c2N2CCOCC2)n1`
0.6

Return the recorded cytotoxicity at 70.5 h value; entry: `Cc1nn(C)c2nc(N(Cc3nccs3)C3CC3)sc12`
-15.9

Return the recorded cytotoxicity at 70.5 h value; entry: O=C(c1ccc(C2CCNC2)cc1)N1CCC(N2CCC(O)CC2)CC1 (stereo not drawn)
3.75

Return the recorded cytotoxicity at 70.5 h value; entry: `Cc1cc(C)n(CCC(=O)N2CCC(c3nc(C)no3)CC2)n1`
-12.5

Return the recorded cytotoxicity at 70.5 h value; entry: Cn1cc(C(=O)CC2CCCN2C(=O)c2cncc3ccccc23)cn1 (stereo not drawn)
3.04

Return the recorded cytotoxicity at 70.5 h value; entry: `CN1CCN(c2ccncc2S(=O)(=O)N2CCCCC2)CC1`
0.146

Return the recorded cytotoxicity at 70.5 h value; entry: CN(C)C1COC2(CCN(Cc3nccs3)CC2)C1 (stereo not drawn)
-4.71

Return the recorded cytotoxicity at 70.5 h value; entry: CN(C)C(=O)C1CCC2(CCNCC2)C1 (stereo not drawn)
-2.3

Return the recorded cytotoxicity at 70.5 h value; entry: `NC(=O)CSCC(=O)NC1(c2cccc(Br)c2)CC1`
32.5

Return the recorded cytotoxicity at 70.5 h value; entry: `Cn1cc(CNC(=O)c2cc3c(s2)CCCCC3)cn1`
-3.43

Return the recorded cytotoxicity at 70.5 h value; entry: `CCc1nsc(N2CCCN(C(=O)c3ccsc3)CC2)n1`
14

Return the recorded cytotoxicity at 70.5 h value; entry: COCC(O)CN(C)c1ccnc2cc(Br)ccc12 (stereo not drawn)
-6.19

Return the recorded cytotoxicity at 70.5 h value; entry: `Cc1ccc(Oc2ncccc2C(=O)O)c(C)c1`
-4.94

Return the recorded cytotoxicity at 70.5 h value; entry: `CCOC1CCN(C(=O)c2ccc(-n3ncc(C#N)c3N)cc2)CC1`
-0.409

Return the recorded cytotoxicity at 70.5 h value; entry: `COCc1cccc(CNCc2c(C)nn(C)c2N2CCOCC2)c1`
-12.5

Return the recorded cytotoxicity at 70.5 h value; entry: CC(=O)Nc1ccc(CNC2CCCSC2)cc1 (stereo not drawn)
23.3

Return the recorded cytotoxicity at 70.5 h value; entry: O=C(NCCc1nc(-c2ccccn2)no1)c1ccc(C2CCCO2)s1 (stereo not drawn)
-5.15

Return the recorded cytotoxicity at 70.5 h value; entry: CC(NC(=O)NCCCOc1ccccc1F)c1nncn1C (stereo not drawn)
-7.39

Return the recorded cytotoxicity at 70.5 h value; entry: `O=C(CCNC(=O)C1CCCC1)NCc1ccccc1Cn1ccnc1`
-8.37

Return the recorded cytotoxicity at 70.5 h value; entry: `Cc1oncc1C(=O)N1CC2CC1(C(=O)NCc1ccco1)C2`
-10.9

Return the recorded cytotoxicity at 70.5 h value; entry: Cc1nc(N2CCC(C(O)c3nccn3C)CC2)c2cccnc2n1 (stereo not drawn)
18.9

Return the recorded cytotoxicity at 70.5 h value; entry: O=C(O)CC(NC(=O)CCCc1cccs1)c1ccc(F)cc1 (stereo not drawn)
-2.27

Return the recorded cytotoxicity at 70.5 h value; entry: `Cc1cccnc1NC(=O)C1(n2cnnn2)CCCCC1`
-30.1

Return the recorded cytotoxicity at 70.5 h value; entry: `COc1cccc(N2CCN(C(=O)CO)CC2=O)c1`
-2.57

Return the recorded cytotoxicity at 70.5 h value; entry: `COc1ccc(CC(=O)Nc2c(C)nc(N3CCCC3)nc2C)cc1`
-2.54

Return the recorded cytotoxicity at 70.5 h value; entry: `Cc1cc(C)c2ncc(C#N)c(N3CCS(=O)(=O)CC3)c2c1`
-7.23

Return the recorded cytotoxicity at 70.5 h value; entry: `NC(=O)Cn1c(CO)cnc1SCc1ccccc1Cl`
18.9

Return the recorded cytotoxicity at 70.5 h value; entry: `Cc1noc(C)c1CN1C[C@@H]2COC[C@@H](CC(=O)N3CCCO3)[C@@H]2C1`
-6.49

Return the recorded cytotoxicity at 70.5 h value; entry: c1cnn(CC2CCCN2Cc2cn3ccsc3n2)c1 (stereo not drawn)
6.04

Return the recorded cytotoxicity at 70.5 h value; entry: `CCN1CCN(C2CCN(Cc3nc(-c4ccoc4)no3)CC2)C1=O`
1.49

Return the recorded cytotoxicity at 70.5 h value; entry: `O=C(CN1C[C@H]2C[C@H](OCc3ccccc3)C[C@H]2C1)N1CCOCC1`
-4.18

Return the recorded cytotoxicity at 70.5 h value; entry: CN(C)C(=O)c1ccc2c(c1)N(C)C(CC(=O)NCc1ncc[nH]1)CO2 (stereo not drawn)
-5.15

Return the recorded cytotoxicity at 70.5 h value; entry: `O=C(CCCNC(=O)C1CC1)Nc1cnn(-c2ccccc2Cl)c1`
-1.38

Return the recorded cytotoxicity at 70.5 h value; entry: `CC(C)c1nc(CN(C)C(=O)c2cn3ccsc3n2)cs1`
2.2

Return the recorded cytotoxicity at 70.5 h value; entry: O=C(CCC1CCN(C2Cc3ccccc3C2)CC1)NCC1CCCO1 (stereo not drawn)
25.6

Return the recorded cytotoxicity at 70.5 h value; entry: CC(OCC1CC1)C(=O)N1CCCN(Cc2cnn(C)c2)CC1 (stereo not drawn)
24.6

Return the recorded cytotoxicity at 70.5 h value; entry: `Cc1nc(CN2C(=O)C[C@@H]3[C@@H]2CCN3S(=O)(=O)C2CC2)cs1`
19.1

Return the recorded cytotoxicity at 70.5 h value; entry: `COC(=O)Cn1c(=O)cc(C(F)F)c2c(C)nn(CC(F)F)c21`
-8.33

Return the recorded cytotoxicity at 70.5 h value; entry: `CSCCc1c(-c2ccccc2)ncn1CC(C)(C)N1CCCC1`
-10.9

Return the recorded cytotoxicity at 70.5 h value; entry: `Cc1noc(C)c1CSc1nc(=O)ccn1C(C)C`
-3.07

Return the recorded cytotoxicity at 70.5 h value; entry: `Cc1ncc(-c2ccnc(SCCN(C)C)n2)c(-c2ccco2)n1`
20.1

Return the recorded cytotoxicity at 70.5 h value; entry: Cn1cc(C2CCCN2C(=O)Cn2ccc3ccccc32)cn1 (stereo not drawn)
-0.47

Return the recorded cytotoxicity at 70.5 h value; entry: Cc1ccccc1CN(C)C(=O)CN1CCOC(Cn2cncn2)C1 (stereo not drawn)
1.73

Return the recorded cytotoxicity at 70.5 h value; entry: `Cc1nnc(N2C[C@@H](OCC3CCCC3)[C@H]3OCCC[C@H]32)s1`
-5.21

Return the recorded cytotoxicity at 70.5 h value; entry: CC1(C)Cc2c(cnn2-c2ccccc2)C(NC2CCSCC2)C1 (stereo not drawn)
-5.66

Return the recorded cytotoxicity at 70.5 h value; entry: CCn1c(C2CCCN(S(=O)(=O)C3CC3)C2)nn(CCN(C)C)c1=O (stereo not drawn)
0.856

Value source: ChEMBL document CHEMBL3507680
